System: DU-145 prostate
Assay: NCI tumour cell line growth inhibition, 48 h
test readout: TGI

C=C1C(=O)O[C@H]2[C@H]1CC/C(CNC(=O)c1cc3cc(OC)ccc3[nH]1)=C\CC[C@@]1(C)O[C@@H]21 : 2.78 µM
COc1ccc(N2C(=O)CC(Cl)C2=O)cc1 (stereo not drawn) : > 100 µM
COC(=O)C(Cc1cn(C(C)=O)c2ccccc12)P(=O)(OC)OC (stereo not drawn) : > 100 µM
COc1cc(S(=O)(=O)Nc2nc(-c3ccc(N4C(=O)CSC4c4cccs4)cc3)cs2)ccc1Cl (stereo not drawn) : > 100 µM
CC(=O)[O-].CC(=O)[O-].[Pt+2].c1cscn1.c1cscn1 : > 100 µM
CN1CCC2(CC1)SC[C@H]1C(=O)N(c3ccc(Cl)cc3)C(=O)N12 : > 100 µM

Report TGI for COc1cc(OCc2nc3ccccc3n3cccc23)cc(OC)c1OC please. > 100 µM

Report TGI for CC(C)(C#N)c1cc(Cn2cncn2)cc(C(C)(C)C#N)c1 please. > 10000 µM

Source: PubChem BioAssay (NCI)
